Test system: NCI-H322M lung
assay: NCI-60 one-dose screen, 48 h
reported-conditions: 10 µM unless noted
The panel holds about 83,000 compounds, 20% with a hit somewhere; the sample as a whole holds those more often. The source made the active and inactive calls. Rule for the calls: active = growth percent below 10; inactive = the rest.
Labels: active, inactive

| compound | classification |
| --- | --- |
| Cc1cc(Nc2nc(N3CCN(C)CC3)nc3ccccc23)n[nH]1 | inactive |
| CC(=O)Oc1ccc(Nc2c3ccccc3nc3ccccc23)cc1 | inactive |
| CCN(CC)CC(O)c1cc(-c2ccc(Cl)cc2)nc2c(C)c(Cl)ccc12 (configuration not stated) | active |
| CCCCNC(=O)NS(=O)(=O)c1ccc(N2N=C(c3cc(C)ccc3C)CC2c2cc(OC)c(OC)c(OC)c2)cc1 (configuration not stated) | inactive |
| Cc1cc(OCc2ccc(C(F)(F)F)cc2)c2c(c1)C(=O)C=C(NCCN1CCCC1)C2=O | inactive |
| C#Cc1nc2ccccc2c(=O)[nH]1 | inactive |
| COc1ccc(S(=O)(=O)NCCNc2nccc(-c3c(-c4cccc([N+](=O)[O-])c4)nc4sccn34)n2)cc1 | inactive |
| COc1nc2c(cc1S(=O)(=O)c1ccccc1)CCc1c-2cnn1Cc1ccccc1 | inactive |
| CC(C)n1cc2c(N)ncnc2n1 | inactive |
| CCN(CC)CCCNc1cc(OC)cc2nc3cc(Cl)ccc3nc12 | active |
| Cc1cccc(NC(=O)c2sc3nc4c(cc3c2N)C(=O)CCC4)c1 | inactive |
| CC(C)Oc1nc2c(c(=O)n(C)c(=O)n2C)n1C | inactive |
| CC1(C)CC(=O)C(c2c(-c3ccccc3)[nH]c3[nH]c(=S)[nH]c(=O)c23)=C(O)C1 | inactive |
| COc1ccc2nc3cc(Cl)ccc3c(NCCNCC(O)CO)c2c1 (configuration not stated) | inactive |
| O=c1c2cccc3c(Nc4ccccn4)ccc(c32)c2nc3ccccc3n12 | inactive |
| C/C(=C(/c1ccc(O)cc1)c1ccc(OCCN2CCCC2)cc1)c1ccccc1 | inactive |
| C(=N\Nc1nnn(Cc2ccccc2)n1)/c1ccccc1 | inactive |
| O=C1Nc2ccccc2C12CC(c1ccc(Cl)cc1)=NN2 (configuration not stated) | inactive |
| O=S(=O)(NCCCNc1cc(-c2cn(-c3ccccc3)nc2-c2cccc(O)c2)ccn1)c1ccccc1 | inactive |
| O=C(/C=C/c1ccc(B(O)O)cc1)/C=C/c1ccc(B(O)O)cc1 | inactive |
| Brc1cccc(-c2nc(-c3ccc4c(c3)OCCO4)co2)c1 | inactive |
| CCCCCCCCCC(=O)Oc1ccc(/C(=C(/C)Cc2cccc(OC)c2)c2ccc(OCCN(C)C)cc2)cc1 | inactive |
